Could you please report measured SPR Response Units for the items listed next?
TEST SYSTEM: GST-human KRas166 (G12V) GPPNHP (Homo sapiens, UniProt P01116, G12V)
Construct: made in house; host or cells: E. coli C41(DE3)
PROTOCOL SUMMARY: KRas small-molecule screening by SPR (BIACORE T200)
Format: binding
CONDITION PARAMETERS: compound at final concentration of 100 uM; immobilised GST-KRAS166 (G12V) GPPNHP, GST reference channel
Protocol: For SPR assays pGEX-KRAS(G12V) plasmid was transformed into E. coli C41(DE3). Bacterial cells were cultured at 37° C. to an OD600 of 0.6 and induced with IPTG (final 0.1 mM) at 18° C. overnight. […]
Please answer in the form of a number followed by its unit of measurement.

- MOLECULE: "c1ccc(COc2ccc3c(c2)O[C@H](CNC2CCNCC2)CO3)cc1 [Example 45]"
  SPR Response Units: "22 Response Units"
- MOLECULE: "Cc1n[nH]c(C)c1CC(=O)NC[C@@H]1COc2ccc(OCc3ccccc3)cc2O1 [Example 12]"
  SPR Response Units: "53 Response Units"
- MOLECULE: "O=C(NCc1ccc(CN2CCOCC2)cc1)C1COc2ccc(OCc3ccccc3)cc2O1 (stereo not shown) [Example 65]"
  SPR Response Units: "46 Response Units"
- MOLECULE: "O=C(NCc1cccnc1)C1COc2ccc(OCc3ccccc3)cc2O1 (stereo not shown) [Example 67]"
  SPR Response Units: "49 Response Units"
- MOLECULE: "O=C(Nc1ncc[nH]1)C1COc2ccc(OCc3ccccc3)cc2O1.O=CO (stereo not shown) [Example 61]"
  SPR Response Units: "25 Response Units"
- MOLECULE: "CN1CCC(C(=O)NC[C@@H]2COc3ccc(OCc4ccc(Cl)cc4)cc3O2)CC1 [Example 18]"
  SPR Response Units: "61 Response Units"

Form entry - test system: GST-human KRas166 (G12V) GPPNHP (Homo sapiens, UniProt P01116, G12V); read-out: SPR Response Units; molecule: CN1CCN(Cc2ccc(C(=O)NC[C@@H]3COc4ccc(OCc5cncc(Cl)c5)cc4O3)o2)CC1 [Example 25]
45 Response Units

###

TEST SYSTEM: GST-human KRas166 (G12V) GPPNHP (Homo sapiens, UniProt P01116, G12V)
Construct: made in house; host or cells: E. coli C41(DE3)
PROTOCOL SUMMARY: KRas small-molecule screening by SPR (BIACORE T200)
Format: binding
CONDITION PARAMETERS: compound at final concentration of 100 uM; immobilised GST-KRAS166 (G12V) GPPNHP, GST reference channel
MEASURED PROPERTY: SPR Response Units (Response Units)
Give bare numbers, in Response Units.

- COMPOUND: "CN1CCN(Cc2cnc(C(=O)NC[C@@H]3COc4ccc(OCc5ccccc5)cc4O3)o2)CC1"
  TEST SYSTEM: "GST-human KRas166 (G12V) GPPNHP (Homo sapiens, UniProt P01116, G12V)"
  MEASURED PROPERTY: "SPR Response Units"
  NUMERIC RESULT: 66

Please go through the list and note SPR Response Units for each compound.
1. NC(=O)CN1CCC(C(=O)NC[C@@H]2COc3ccc(OCc4ccccc4)cc3O2)CC1
2. CN1CCC(C(=O)NC[C@@H]2COc3ccc(OCc4ccc(F)c(F)c4)cc3O2)CC1
3. NCC(=O)N[C@H]1CC[C@@H](NC(=O)C2COc3ccc(OCc4ccccc4)cc3O2)CC1 (stereo partly shown)

24
44
64
